- Test system: Mycobacterium tuberculosis
- assayProtocol: Antibacterial activity against non replicating Mycobacterium tuberculosis H37Rv assessed as log reduction in bacterial count at 10 ug/ml incubated for 7 days followed by compound dilution measured after 4 weeks
- Type: functional
readout: log(activity)

Challenge: # input molecule: Cc1ccc(NC(=S)Nc2cccc(-c3nc4ccccc4s3)c2)cc1 ; wanted: its log(activity)
Response given: 2.1

Challenge: Looking for the measured log(activity) of O=C(Nc1ccc([N+](=O)[O-])cc1)Nc1cccc(-c2nc3ccccc3s2)c1 , can you help?
Response given: 2.1

Challenge: Need log(activity), item CO[C@H]1/C=C/O[C@@]2(C)Oc3c(C)c(O)c4c(O)c(c(/C=N/N5CCN(C)CC5)c(O)c4c3C2=O)NC(=O)/C(C)=C\C=C\[C@H](C)[C@H](O)[C@@H](C)[C@@H](O)[C@@H](C)[C@H](OC(C)=O)[C@@H]1C
Response given: 0.5

Challenge: Request the reported log(activity) associated with FC(F)(F)c1ccc2sc(-c3cccc(NC(=S)NCc4ccccc4)c3)nc2c1
Response given: 2.1

Challenge: Data request, read-out log(activity), for NNC(=O)c1ccncc1
Response given: 1.1

Challenge: Query (molecule): Fc1ccc(NC(=S)Nc2cccc(-c3nc4cc(C(F)(F)F)ccc4s3)c2)cc1 ; field requested: log(activity)
Response given: 2.1
